B1: TPR t1 (parent)
chain: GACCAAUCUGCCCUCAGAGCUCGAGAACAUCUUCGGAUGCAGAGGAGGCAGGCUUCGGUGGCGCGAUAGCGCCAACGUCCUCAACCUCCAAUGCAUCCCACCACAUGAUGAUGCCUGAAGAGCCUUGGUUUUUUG

# Variants of: B1
# test summary: polymerase ribozyme fitness, log enrichment relative to wild type (log ratio); higher = more active; in vitro selection for triplet polymerase activity
Values of polymerase ribozyme fitness (log ratio) greater than or equal to -1 map to 1; values below map to 0.

{"columns": ["mutation spec", "assigned class"],
 "data": [
  ["G77U U92G C124U", 0],
  ["C34U A50C C70G C79G C89A C102G C124U", 0],
  ["G52A G122A C124U", 1],
  ["C28G G77U", 0],
  ["G42C G47U", 0],
  ["C53A C56U U106C", 1],
  ["C73U A119G", 1],
  ["C62U A118G", 1],
  ["G47C G52C", 0],
  ["C15U C76A", 0],
  ["A84U A90G C98G U109A A121U", 0],
  ["U106A U109A", 0],
  ["C8A G57U A66G C76U A90U", 0],
  ["G47U C70U", 0],
  ["C20G A37G A118U", 0],
  ["C53A A74U C89U", 1],
  ["G17U G60U C88U C97U G120A", 0],
  ["A5U A41U G120C", 0],
  ["G57U U116C", 0],
  ["A6G U96A C102A U129A", 0],
  ["A16U C124U U129G", 1],
  ["A24G G58C A118U", 0],
  ["C15U A16U G23A G63A G93C C114G", 0]
]}
